Origin of values: ChEMBL document CHEMBL4024801

Test system: LLC-MK2
Assay: Cytotoxicity against monkey LLC-MK2 cells after 3 to 4 days by crystal violet staining-based spectrophotometric method
Assay type: cell-based, Macaca mulatta
Details: rhesus monkey
readoutLabel: CC50

* CC(C)n1ncc2c(C(=O)Nc3ccc(F)cn3)cc(-c3cccs3)nc21 | > 200 µM
* CC(C)n1ccc2c(C(=O)Nc3ccc(F)cc3)cc(-c3cccs3)nc21 | > 200 µM
* CC(C)n1ncc2c(C(=O)Nc3ccncn3)cc(-c3ccsc3)nc21 | > 200 µM

----------
Experiment: Selectivity index, ratio of CC50 for human HeLa-RW cells to EC50 for Coxsackievirus B3
Type: toxicity
Conditions: read-out: Ratio CC50/EC50
Tag: 1 if measured selectivity ratio is not below 20, -1 if it is.

- CC(C)n1ncc2c(C(=O)Nc3ccccc3F)cc(-c3cncs3)nc21: 1
- CC(C)n1ncc2c(C(=O)Nc3ccccc3F)cc(-c3ccccn3)nc21: 1
- CC(C)n1ncc2c(C(=O)Nc3ccncn3)cc(-c3ccsc3)nc21: 1
- CC(C)n1ncc2c(C(=O)Nc3ccccn3)cc(-c3cccs3)nc21: 1
- CC(C)n1ccc2c(C(=O)Nc3ccc(F)cc3)cc(-c3cccs3)nc21: 1
- CC(C)n1ncc2c(C(=O)Nc3cccc(F)c3F)cc(-c3cccs3)nc21: 1
- CC(C)n1ncc2c(C(=O)Nc3ccc(F)cc3F)cc(-c3cccs3)nc21: 1
- CC(C)n1ncc2c(C(=O)Nc3ccccc3F)cc(-c3ccncc3)nc21: -1
- CC(C)n1ncc2c(C(=O)Nc3cc(S(N)(=O)=O)ccc3F)cc(-c3cccs3)nc21: 1
- CC(C)n1ncc2c(C(=O)Nc3cccnc3)cc(-c3ccsc3)nc21: 1
- CC(C)n1ncc2c(C(=O)Nc3ccc(F)c(S(N)(=O)=O)c3)cc(-c3cccs3)nc21: 1
- CC(C)n1ncc2c(C(=O)Nc3ccc(F)cc3)cc(-c3cccs3)nc21: 1
- CC(C)n1ncc2c(C(=O)Nc3c(F)cc(F)cc3F)cc(-c3cccs3)nc21: 1
- CC(C)n1ncc2c(NC(=O)c3ccc(F)cc3)cc(-c3cccs3)nc21: -1
- CC(C)n1ncc2c(C(=O)Nc3cc(F)ccc3F)cc(-c3cccs3)nc21: 1
- CC(C)n1ncc2c(C(=O)Nc3ccccc3F)cc(-c3cccs3)nc21: -1
- CC(C)n1ncc2c(C(=O)Nc3ccc(S(C)(=O)=O)cc3)cc(-c3cccs3)nc21: 1
- CC(C)n1ccc2c(C(=O)Nc3cccnc3)cc(-c3cccs3)nc21: -1
- CC(C)n1ncc2c(C(=O)Nc3ccc(F)cc3)cc(C3CC3)nc21: -1
- CC(C)n1ncc2c(C(=O)Nc3ccc(F)cn3)cc(-c3cccs3)nc21: 1
- CC(C)n1ncc2c(C(=O)Nc3ccc(F)c(F)c3)cc(-c3cccs3)nc21: 1
- CC(C)n1ncc2c(C(=O)Nc3cccc(F)c3)cc(-c3cccs3)nc21: 1
- CC(C)n1ncc2c(C(=O)Nc3cccc(C(N)=O)c3)cc(-c3cccs3)nc21: 1
- CNS(=O)(=O)c1cccc(NC(=O)c2cc(-c3cccs3)nc3c2cnn3C(C)C)c1: 1
- CC(C)n1ncc2c(C(=O)Nc3ccccn3)cc(-c3ccsc3)nc21: -1

----------
Below: a set of entries, each annotated with reported log10 EC50.
Test system: Coxsackievirus B3
Assay: Antiviral activity against Coxsackievirus B3 infected in human HeLa-RW cells assessed as protection against virus-induced cytopathic effect after 3 to 4 days by crystal violet staining-based spectrophotometric method
Assay type: functional, cell-based
Settings: Enterovirus B
readoutLabel: log10 EC50 (log10 of the value in nM)

- CC(C)n1ncc2c(C(=O)Nc3ccc(F)cc3)cc(-c3cccs3)nc21: 2.85
- CC(C)n1ncc2c(C(=O)Nc3ccc(F)cc3F)cc(-c3cccs3)nc21: 3.15
- CC(C)n1ncc2c(C(=O)Nc3ccccc3F)cc(-c3ccccn3)nc21: 3.84
- CC(C)n1ncc2c(C(=O)Nc3ccccc3F)cc(-c3ccncc3)nc21: 3.71
- CC(C)n1ncc2c(C(=O)Nc3cncnc3)cc(-c3cccs3)nc21: 2.85
- CC(C)n1ccc2c(C(=O)Nc3ccccn3)cc(-c3cccs3)nc21: 3.34
- CC(C)n1ncc2c(C(=O)Nc3cc(C(N)=O)ccc3F)cc(-c3cccs3)nc21: 2.90
- CC(C)n1ncc2c(C(=O)Nc3ccccn3)cc(-c3ccccc3)nc21: 3.20
- CC(C)n1ncc2c(C(=O)Nc3ccncc3)cc(-c3cccs3)nc21: 2.78
- CC(C)n1ncc2c(NC(=O)c3ccc(F)cc3)cc(-c3cccs3)nc21: 3.67
- CC(C)n1ncc2c(C(=O)Nc3cccc(S(=O)(=O)N(C)C)c3)cc(-c3cccs3)nc21: 3.00
- CC(C)n1ncc2c(C(=O)Nc3ccc(F)cn3)cc(-c3cccs3)nc21: 2.85
- CC(C)n1ncc2c(C(=O)Nc3ncccn3)cc(-c3ccsc3)nc21: 3.08

----------
Assay: Cytotoxicity against human HeLa-RW cells after 3 to 4 days by crystal violet staining-based spectrophotometric method
Type: cell-based
Conditions: hela-rw
# note: boundary value 20 µM maps to not fulfilled; CC50 below it maps to fulfilled

• CC(C)n1ncc2c(C(=O)Nc3c(F)cccc3F)cc(-c3cccs3)nc21 = not fulfilled
• CC(C)n1ncc2c(C(=O)Nc3cccc(F)c3F)cc(-c3cccs3)nc21 = not fulfilled
• CC(C)n1ncc2c(C(=O)N3CCc4cccnc43)cc(-c3cccs3)nc21 = not fulfilled
• CC(C)n1ncc2c(C(=O)Nc3ccc(F)cc3)cc(-c3ccsc3)nc21 = not fulfilled
• CC(C)n1ncc2c(C(=O)Nc3ccccn3)cc(-c3ccccc3)nc21 = fulfilled
• CC(C)n1ncc2c(C(=O)Nc3cccc(C(N)=O)c3)cc(-c3cccs3)nc21 = fulfilled
• CC(C)n1ncc2c(C(=O)Nc3ncccn3)cc(-c3cccs3)nc21 = not fulfilled
• CC(C)n1ncc2c(C(=O)Nc3ccccn3)cc(C3CC3)nc21 = not fulfilled
• CNS(=O)(=O)c1cccc(NC(=O)c2cc(-c3cccs3)nc3c2cnn3C(C)C)c1 = fulfilled
• CC(C)n1ncc2c(C(=O)Nc3ccc(F)cc3)cc(-c3cccs3)nc21 = not fulfilled
• CC(C)n1ncc2c(C(=O)Nc3c(F)cc(F)cc3F)cc(-c3cccs3)nc21 = not fulfilled
• CC(C)n1ncc2c(C(=O)Nc3ccccc3F)cc(-c3cncs3)nc21 = not fulfilled
• CC(C)n1ncc2c(C(=O)Nc3cc(S(N)(=O)=O)ccc3F)cc(-c3cccs3)nc21 = fulfilled
• CC(C)n1ncc2c(C(=O)Nc3ccc(F)cc3F)cc(-c3cccs3)nc21 = not fulfilled
• CC(C)n1ncc2c(C(=O)Nc3cccnc3)cc(-c3cccs3)nc21 = not fulfilled
• CC(C)n1ncc2c(NC(=O)c3ccc(F)cc3)cc(-c3cccs3)nc21 = fulfilled

----------
Tested on: Poliovirus 3
Experiment: Antiviral activity against Poliovirus 3 infected in human HeLa-RW cells assessed as protection against virus-induced cytopathic effect after 3 to 4 days by crystal violet staining-based spectrophotometric method
Type: functional, cell-based
Settings: Enterovirus C
Below: a set of entries, each annotated with reported EC50.
readoutLabel: EC50

• CC(C)n1ncc2c(C(=O)Nc3cccnc3)cc(-c3ccsc3)nc21 = > 10 µM
• CC(C)n1ncc2c(C(=O)Nc3ccccc3F)cc(-c3cccnc3)nc21 = > 25 µM
• CC(C)n1ncc2c(C(=O)Nc3ccccc3F)cc(-c3nccs3)nc21 = > 10 µM
• CC(C)n1ncc2c(C(=O)Nc3ccncn3)cc(-c3ccsc3)nc21 = > 10 µM
• CC(C)n1ncc2c(C(=O)Nc3cc(S(N)(=O)=O)ccc3F)cc(-c3cccs3)nc21 = 6.3 µM
• CC(C)n1ncc2c(C(=O)Nc3cc(F)ccc3F)cc(-c3cccs3)nc21 = > 25 µM
• CC(C)n1ncc2c(S(=O)(=O)Nc3ccc(F)cc3)cc(-c3cccs3)nc21 = > 10 µM
• CC(C)n1ncc2c(C(=O)Nc3cccc(S(N)(=O)=O)c3)cc(C3CC3)nc21 = > 10 µM
• CC(C)n1ncc2c(C(=O)Nc3cncnc3)cc(-c3cccs3)nc21 = 10 µM
• CC(C)n1nnc2c(C(=O)Nc3ccc(F)cc3)cc(-c3cccs3)nc21 = > 10 µM
• CC(C)n1ncc2c(C(=O)Nc3ncccn3)cc(-c3ccsc3)nc21 = > 10 µM
• CC(C)n1ncc2c(C(=O)Nc3ccccc3F)cc(-c3ccccn3)nc21 = > 25 µM
• CC(C)n1ncc2c(C(=O)Nc3ncccn3)cc(-c3cccs3)nc21 = > 10 µM
• CNS(=O)(=O)c1cccc(NC(=O)c2cc(-c3cccs3)nc3c2cnn3C(C)C)c1 = > 10 µM
• CC(C)n1ncc2c(NC(=O)c3cc(-c4cccs4)nc4c3cnn4C(C)C)cc(-c3cccs3)nc21 = > 10 µM
• CC(C)n1ncc2c(C(=O)N(C)c3ccccn3)cc(-c3cccs3)nc21 = > 10 µM
• CC(C)n1ncc2c(-c3nc4ccc(F)cc4o3)cc(-c3cccs3)nc21 = > 10 µM
• CC(C)n1ncc2c(C(=O)Nc3ccccn3)cc(C3CC3)nc21 = > 25 µM
• CC(C)n1ncc2c(C(=O)Nc3ccccc3F)cc(-c3cnco3)nc21 = > 10 µM
• CC(C)n1ncc2c(C(=O)Nc3cccc(C(N)=O)c3)cc(-c3cccs3)nc21 = 6.3 µM
• CC(C)n1ncc2c(C(=O)Nc3ccc(F)cc3F)cc(-c3cccs3)nc21 = > 25 µM
• CC(C)n1ncc2c(C(=S)Nc3ccc(F)cc3)cc(-c3cccs3)nc21 = > 10 µM
• CC(C)n1ncc2c(C(=O)Nc3ccccc3F)cc(-c3cccs3)nc21 = 7 µM
• CC(C)n1ncc2c(C(=O)Nc3ccccc3F)cc(-c3ccccc3)nc21 = > 25 µM
• CC(C)n1ncc2c(C(=O)Nc3cccc(S(N)(=O)=O)c3)cc(-c3cccs3)nc21 = 5 µM
• CC(C)n1ncc2c(C(=O)Nc3ccccc3F)cc(-c3cncs3)nc21 = > 25 µM
• CC(C)n1ncc2c(C(=O)Nc3ccc(S(C)(=O)=O)cc3)cc(-c3cccs3)nc21 = > 10 µM
• CC(C)n1cnc2c(C(=O)Nc3ccc(F)cc3)cc(-c3cccs3)nc21 = > 10 µM
• CC(C)n1ccc2c(C(=O)Nc3ccncc3)cc(-c3cccs3)nc21 = > 10 µM
